reported.property: melting point

Worked set:
> print(dat)
                                   compound  reported.property       observed
1  O=C(O)c1cc(S(=O)(=O)Cl)cc(S(=O)(=O)Cl)c1O      melting point  185 to 187 °C
2  Cc1c(SCCCSc2ccc3ncc([N+](=O)[O-])n3n2)ccnc1CO      melting point  127 to 129 °C
3         COc1ccc2c(-c3ccc(OC)c(C)c3)noc2c1      melting point    93 to 95 °C
4                    C=CCNc1ccc(C(=O)OC)cc1      melting point    71 to 73 °C
5                  Clc1ncnc2cc3c(cc12)OCCO3      melting point  169 to 174 °C

Entry COc1cccc(-n2c(CC(c3ccccc3)c3c[nH]c4ccccc34)nc3ccccc3c2=O)c1 (configuration not stated) needs its melting point filled in; supply it.
160 to 164 °C

Entry `Cc1ccc(S(=O)(=O)N2Cc3sccc3-n3cccc3C2)cc1` needs its melting point filled in; supply it.
165 °C

---

Quick reference for melting point among some molecules

> print(dat)
                                   molecule  reported.property       observed
1  NN1CCN(C2c3ccccc3C=C(Br)c3ccccc32)CC1 (stereo not given)      melting point  188 to 190 °C

Entry `Cc1cc(OC(F)F)nc(NC(=O)NS(=O)(=O)c2cccnc2Cl)n1` needs its melting point filled in; supply it.
161 to 162 °C

Entry `CS(=O)(=O)c1cc(OCc2ccccc2)cs1` needs its melting point filled in; supply it.
108 to 109 °C

Entry `COCn1c(-c2nccs2)c(Cl)c2cccc(NS(=O)(=O)c3cccs3)c21` needs its melting point filled in; supply it.
128 to 129 °C

Entry `CCc1nc2c(N)nc3ccccc3c2n1CCCSC` needs its melting point filled in; supply it.
210 to 212 °C

---

reported.property: melting point

Worked set:
> print(dat)
                                   molecule       observed
1          C=CC1(CC(=O)O)CC(C)(C)CC(C)(C)C1    92 to 94 °C
2  COc1cc(Nc2c(C#N)cnc3sc(I)cc23)c(Cl)cc1Cl  231 to 233 °C
3  CC(=O)NCC1CN(Cc2ccc(F)cc2)CCO1 (stereo not given)  120 to 122 °C
4  Cc1cc(OCC(O)CNC(C)(C)C)c2cc(C(N)=O)[nH]c2c1 (stereo not given)  213 to 214 °C
5  Cc1oc(-c2ccccc2)nc1COc1cccc(COc2ccccc2CC(=O)O)c1  117 to 118 °C

Entry NS(=O)(=O)c1ccccc1OC(F)(F)C(F)Cl (stereo not given) needs its melting point filled in; supply it.
113 to 116 °C

---

Quick reference for melting point among some molecules

Worked set:
> print(dat)
                                   molecule  reported.property       observed
1                      CCCCn1nc(C(N)=O)cc1C      melting point         114 °C
2                    CCOC(=O)C(=O)Nc1ncccn1      melting point    96 to 99 °C
3  CC(C)(C)[C@H]1N(c2ccc(C#N)c3ccccc23)C(=O)[C@@H]2C[C@@H](OCc3ccccc3)CN21      melting point  155 to 157 °C
4  CCOC(=O)C(C)(CCCN(C)CCc1ccc(OC)c(OC)c1)c1ccc(OC)c(OC)c1 (configuration not stated)      melting point  118 to 121 °C
5          O=C1SCCN1Cc1ccc([N+](=O)[O-])cc1      melting point  146 to 148 °C
6               CNS(=O)(=O)OCCOc1ccc(Cl)cc1      melting point  101 to 104 °C

Entry `NCCSC[C@H]1O[C@@H](n2cnc3c(NCc4ccc([N+](=O)[O-])cc4)ncnc32)[C@H](O)[C@@H]1O` needs its melting point filled in; supply it.
115 to 117 °C

Entry `CCOC(=O)c1cnn(-c2cc(Cl)cc(Cl)c2)c1C#N` needs its melting point filled in; supply it.
101 to 103 °C

Entry CCOC(=O)c1cn(C2CC2)c2c(F)c(N3CCOC(CN(C)C)C3)c(F)cc2c1=O (configuration not stated) needs its melting point filled in; supply it.
168 to 169 °C

Entry CC1(C)NC2C(=O)N(C(O)C(=O)OCC(Cl)(Cl)Cl)C2S1 (configuration not stated) needs its melting point filled in; supply it.
125 to 127 °C

Entry `Cc1cc(C(=S)NCc2ccc(Br)cc2F)c(OCC(=O)O)cc1F` needs its melting point filled in; supply it.
162 to 164 °C

Entry `COc1cc(CNC(c2ccccc2)c2ccccc2)ccc1O` needs its melting point filled in; supply it.
115 to 118 °C

---

Quick reference for melting point among some compounds

Worked set:
> print(dat)
                                   compound       observed
1    NC(=O)COc1ccc(OCc2ccccc2)cc1OCc1ccccc1         120 °C
2                      N#Cc1ccnc(C(N)=O)c1N       > 310 °C
3  COc1cc(Cc2cnc(N)nc2N)cc2c1OC(C)(C)C=C2c1cccc([N+](=O)[O-])c1  253 to 254 °C

Moving on to another compound below.
Entry O=P(O)(O)C1CCCN1 (centres undefined) needs its melting point filled in; supply it.
275 to 280 °C

---

reported.property: melting point

> print(dat)
                    structure.smiles.string       observed
1      CCCn1c(C#N)c(Cl)n(-c2ccc(Cl)cc2)c1=O  102 to 103 °C
2  O=C1Nc2cccnc2N(C(=O)CCC#CCN2CCCCC2)c2ccccc21         197 °C
3           COc1cccc(-c2noc(-c3ccccn3)n2)c1    90 to 94 °C

Moving on to another compound below.
Entry `CNC(=O)c1cc2cc(S(N)(=O)=O)sc2s1` needs its melting point filled in; supply it.
272 to 273 °C

---

Quick reference for melting point among some compounds

Entry `COC(=O)c1cc(-c2nc(COc3ccc(C=O)cc3OC)c(C)o2)ccc1C` needs its melting point filled in; supply it.
136 to 137 °C

Entry `COC(=O)[C@H]1C=C(C2CCCCC2)OC(=O)[C@H]1Cc1ccccc1` needs its melting point filled in; supply it.
87 to 89 °C

Entry `CCOC(=O)C=Cc1ccc(C=Cc2ccc(C=CC(=O)O)cc2)cc1` needs its melting point filled in; supply it.
245 to 248 °C

Entry `CCOc1ccc(S(=O)(=O)N2CCN(C)CC2)cc1-c1nc2c(COC)nn(C)c2c(=O)[nH]1` needs its melting point filled in; supply it.
198 to 199 °C

Entry CCSC1=C(NC(=O)CN2CCN(CCSc3nc4c(C)c(Cl)cc(C(C)C)c4o3)CC2)C=CC(C)(SCC)N1 (stereo not drawn) needs its melting point filled in; supply it.
120 to 122 °C

Entry `CC(=O)Nc1cccc2c1C(=O)c1c-2n[nH]c1-c1ccc(N2CCOCC2)cc1` needs its melting point filled in; supply it.
> 300 °C

Entry `O=[N+]([O-])c1cc2n(n1)CCOC2` needs its melting point filled in; supply it.
110 to 112 °C

Entry `CN1CCN(Cc2ccccc2-c2cc3c(Nc4ccc5[nH]ccc5c4)c(C#N)cnc3s2)CC1` needs its melting point filled in; supply it.
226 to 228 °C

---

Quick reference for melting point among some molecules

Worked set:
> print(dat)
                                   molecule  reported.property       observed
1        Cl[Si](Cl)(Cl)Cc1ccc(-c2ccccc2)cc1      melting point    60 to 65 °C
2  Cc1nc2cc3c(cc2s1)C1(CO3)C(=O)N(Cc2ncc(Cl)n2C)c2ccccc21 (centres undefined)      melting point  177 to 178 °C
3       O=C1C=C(c2c[nH]c3ccc(F)cc23)C(=O)N1      melting point  255 to 265 °C

Entry `CCc1c(-c2ccc(O)cc2)c2ccc3c(N)ccc1n32` needs its melting point filled in; supply it.
147 to 149 °C
